target: Fibroblast growth factor receptor 3 (Homo sapiens); conditions: at 1 µM;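 also: values reported are mean percent inhibition of FGFR3 activity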
Recorded inhibition for the following compounds
Could you give me the number in %? Just the number is fine.

Entry under test: Fc1ccc(-c2ncn(C3CCNCC3)c2-c2ccnc(Oc3ccc(Oc4ccccc4)cc3)n2)cc1 . Its inhibition was 5.27

---

Recorded inhibition for the following molecules
target: Cyclin-dependent kinase 6 (Homo sapiens) (UniProt Q00534); conditions: at 0.1 µM;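 also: mean percent inhibition of CDK6 complexed with cyclin D3, from the GSK PKIS kinase inhibitor screen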
Sequence (Q00534 whole entry): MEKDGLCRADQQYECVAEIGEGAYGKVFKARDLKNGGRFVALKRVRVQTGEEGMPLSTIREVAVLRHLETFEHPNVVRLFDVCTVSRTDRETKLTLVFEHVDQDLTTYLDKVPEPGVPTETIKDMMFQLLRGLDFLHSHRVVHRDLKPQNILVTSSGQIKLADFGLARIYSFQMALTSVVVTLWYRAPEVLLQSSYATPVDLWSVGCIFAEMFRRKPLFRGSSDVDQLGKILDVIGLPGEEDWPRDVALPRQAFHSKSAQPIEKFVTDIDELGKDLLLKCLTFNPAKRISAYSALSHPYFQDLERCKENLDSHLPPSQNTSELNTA
Could you give me the number in %? Just the number is fine.

Below are worked cases with known answers.
Structure	inhibition, %
Fc1ccc(-c2ncn(C3CCNCC3)c2-c2ccnc(Oc3ccc(F)c(F)c3)n2)cc1	-4.37
NS(=O)(=O)c1ccc(N/N=C2\C(=O)Nc3ccc(-c4cnco4)cc32)cc1	9.49
CS(=O)(=O)CCNCc1ccc(-c2ccc3ncnc(Nc4ccc(OCc5ccccc5)c(Br)c4)c3c2)o1	-4.44
CCS(=O)(=O)c1ccc(OC)c(Nc2ncc(-c3cccc(-c4ccccc4F)c3)o2)c1	0.01
O=C1Nc2ccc(I)cc2C1=Cc1cc(Br)c(O)c(Br)c1	-0.1
O=C1NC(=O)C(c2cccc(Cl)c2)=C1Nc1ccc(Cl)c(C(=O)O)c1	-2.3

Per the reported Cyclin-dependent kinase 6 (Homo sapiens) (UniProt Q00534) data, COc1ccc2cc(-c3c(-c4ccncc4)nc(-c4ccc(S(C)(=O)=O)cc4C)n3C)ccc2c1 has inhibition of 0.01

Per the reported Cyclin-dependent kinase 6 (Homo sapiens) (UniProt Q00534) data, COc1cc(N2CCN(C(C)C)CC2)ccc1Nc1nc(Nc2ccc(F)cc2C(=O)NC[C@@H](O)CO)c2cc[nH]c2n1 has inhibition of -8.05

Per the reported Cyclin-dependent kinase 6 (Homo sapiens) (UniProt Q00534) data, Fc1ccc(-c2ncn(C3CCNCC3)c2-c2ccnc(Oc3ccc(Oc4ccccc4)cc3)n2)cc1 has inhibition of -6.79

Per the reported Cyclin-dependent kinase 6 (Homo sapiens) (UniProt Q00534) data, CCS(=O)(=O)c1ccc(OC)c(Nc2ncc(-c3ccccc3Cl)o2)c1 has inhibition of 4.47

Per the reported Cyclin-dependent kinase 6 (Homo sapiens) (UniProt Q00534) data, CN(C)c1ccc2c(c1)/C(=C/Nc1ccc(S(N)(=O)=O)cc1)C(=O)N2 has inhibition of 4.7

Per the reported Cyclin-dependent kinase 6 (Homo sapiens) (UniProt Q00534) data, c1ccc(Oc2ccc(Nc3ncc(-c4ccccc4)o3)cc2)cc1 has inhibition of 1.34

Per the reported Cyclin-dependent kinase 6 (Homo sapiens) (UniProt Q00534) data, C[C@@H](Oc1cc(-n2cnc3ccc(OC4CCN(C)CC4)cc32)sc1C(N)=O)c1ccccc1Cl has inhibition of -5.27
